System: Mus musculus
Assay: Compound was evaluated for the antinociceptive effects at the dose 0.5(mg/kg)
Assay type: functional
Please provide measured Change for the entries that follow.
Express your answer in %, writing the number without its unit.

-- ask What does the record list as Change for CCCCCCC(C)(C)c1cc(O)c2c(c1)OC(C)(C)C1CC=C(C(=O)OC)C[C@H]21 (some centres undefined) ?
-- reply 49

-- ask # iterate: CCCCCCC(C)(C)c1cc(O)c2c(c1)OC(C)(C)[C@@H]1CC=C(C(=O)OC)CC21 (some centres undefined)
-- reply -2.8

-- ask # iterate: CCCCCCC(C)(C)c1cc(O)c2c(c1)OC(C)(C)[C@@H]1CC=C(C(=O)O)CC21 (some centres undefined)
-- reply 34

-- ask # iterate: CCCCCCC(C)(C)c1cc(O)c2c(c1)OC(C)(C)C1CC=C(C(=O)O)C[C@H]21 (some centres undefined)
-- reply 51.7

# credit: ChEMBL document CHEMBL1125531
